Recorded melting point for the following molecules

Previously resolved entries follow.
# Molecule, Reported measurement
measured = [
    ("NC(=O)c1ccc(-c2csc(N)n2)cc1", "250 to 252 °C"),
    ("CN1CCc2cc(C=O)ccc21", "38 to 40 °C"),
]

Query string: Name the recorded melting point for CC(NC(=O)c1cccs1)C(=O)O (stereo unspecified) .
Result string: 163 to 165 °C

Query string: Name the recorded melting point for `O=C(O)c1cc([N+](=O)[O-])cc(F)c1F` .
Result string: 132 to 134 °C

---

Endpoint label: melting point

# Molecule, Endpoint label, Reported measurement
records = [
    ("CC(=O)c1cccc(OC(C)C(=O)O)c1 (stereo unspecified)", "melting point", "93 to 95 °C"),
    ("NC(=O)Nc1cccc(C(=O)O)c1", "melting point", "269 to 271 °C"),
    ("O=C(O)C=Cc1ccc(-n2cc(Br)cn2)c(F)c1", "melting point", "204 to 206 °C"),
    ("COc1ccc(CCl)cc1Br", "melting point", "45 to 51 °C"),
]

Query string: Name the recorded melting point for `O=C(O)c1cccc(=O)n1CCOc1ccccc1Cl` .
Result string: 118 to 120 °C

Query string: Name the recorded melting point for `N#Cc1ccc(Cl)nn1` .
Result string: 83 to 85 °C

Query string: Name the recorded melting point for `O=C(O)C1(c2ccc(Br)cc2)CCC1` .
Result string: 117 to 119 °C

Query string: Name the recorded melting point for `COC(=O)c1cc2ccccc2c(Cl)n1` .
Result string: 110 to 112 °C

Query string: Name the recorded melting point for O=C(O)C1CCC(=O)N(Cc2ccccc2)C1 (stereo unspecified) .
Result string: 154 to 156 °C

Query string: Name the recorded melting point for `Cc1csc(CC(=O)NN)n1` .
Result string: 73 to 75 °C

Query string: Name the recorded melting point for `COC(=O)C(=O)CC(=O)c1ccc(OC)cc1OC` .
Result string: 101 to 103 °C
